# protein stability index listing for each entry below
B1: SAT2 (parent)
chain: GYGIYYFIYSTWKGRTIYLEDIYV

variants of: B1; experiment: protein stability index of a GFP-peptide fusion (GPS, HEK-293T) (PSI 1-6); higher = more stable; conditions: c terminus: a fixed tail appended;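 note: lentivirally expressed fusions sorted by FACS into six bins by GFP to DsRed ratio, PSI derived from sequencing read proportions per bin multiplied by bin number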
Just the number, please, no unit attached.

alteration: D21E
protein stability index: 2.34
//
alteration: D21M
protein stability index: 3.04
//
alteration: Y9C
protein stability index: 2.94
//
alteration: F7L
protein stability index: 2.92
//
alteration: G1S
protein stability index: 2.41
//
alteration: V24R
protein stability index: 2.39

The value of protein stability index measured for the variant S10Y turned out to be 2.76

The value of protein stability index measured for the variant Y5K turned out to be 2.61

The value of protein stability index measured for the variant D21N turned out to be 2.74

The value of protein stability index measured for the variant V24F turned out to be 2.91

The value of protein stability index measured for the variant I17Y turned out to be 2.1
